The measurements presented in this section are drawn from patent US20170275287A1.

- assay_procedure: 7-day non-GLP tox study, once daily oral gavage
- Assay type: in vivo, rats
- condition_details: both sexes, rat, in vivo, po
measure_name: NOAEL at 7 days

# compound, measure_name, result_value
data = [
    ("CN1CCN(c2nc(NCCN3CCOCC3)c3nc(Cl)c(NCCN4CCOCC4)nc3n2)CC1 [JB6121]", "NOAEL at 7 days", "100 mg/kg/day"),
]

====

- assay_procedure: Toxicokinetics of the 7-day tox study
- Type: in vivo, rats
- condition_details: male, rat, whole blood, po, 10 mg/kg, Day 1, 10 mg/kg oral, Male
measure_name: AUC (ng·h/mL)

# chemical_string, measure_name, result_value
records = [
    ("CN1CCN(c2nc(NCCN3CCOCC3)c3nc(Cl)c(NCCN4CCOCC4)nc3n2)CC1", "AUC", 743),
]

====

- assay_procedure: PK/PD study: whole blood JB6121 after 7 days oral dosing
- Assay type: in vivo, Sprague-Dawley rats
- condition_details: Sprague-Dawley, rat, whole blood; 0.39 mg/kg PO daily x7 days, Day 7
measure_name: Tmax (h)

# compound, units_symbol, result_value
data = [
    ("CN1CCN(c2nc(NCCN3CCOCC3)c3nc(Cl)c(NCCN4CCOCC4)nc3n2)CC1 [JB6121]", "h", 3.8),
]

====

- assay_procedure: Toxicokinetics of the 7-day tox study
- Assay type: in vivo, rats
- condition_details: male, rat, whole blood, po, 10 mg/kg, Day 7, 10 mg/kg oral, Male; read-out: T½ (converted)
measure_name: half-life (h)

# molecule, result_value
records = [
    ("CN1CCN(c2nc(NCCN3CCOCC3)c3nc(Cl)c(NCCN4CCOCC4)nc3n2)CC1 [JB6121]", 19.9),
]

====

- assay_procedure: PK/PD study: whole blood JB6121 after 7 days oral dosing
- Format: in vivo, Sprague-Dawley rats
- condition_details: Sprague-Dawley, rat, whole blood; 6.25 mg/kg PO daily x7 days, Day 7

# chemical_string, units_symbol, Cmax
rows = [
    ("CN1CCN(c2nc(NCCN3CCOCC3)c3nc(Cl)c(NCCN4CCOCC4)nc3n2)CC1", "µg/mL", 0.095),
]

====

- assay_procedure: Toxicokinetics of the 7-day tox study
- Format: in vivo, rats
- condition_details: rat, whole blood, iv; Day 1, 5 mg/kg I.V., Male

# molecule, clearance
measured = [
    ("CN1CCN(c2nc(NCCN3CCOCC3)c3nc(Cl)c(NCCN4CCOCC4)nc3n2)CC1 [JB6121]", "24.7 mL/min/kg"),
]

====

- assay_procedure: PK/PD study: whole blood JB6121 after 7 days oral dosing
- Type: in vivo, Sprague-Dawley rats
- condition_details: Sprague-Dawley, rat, whole blood; 0.39 mg/kg PO daily x7 days, Day 7; read-out: t½ (converted)
measure_name: half-life (h)

# chemical_string, measure_name, units_symbol, result_value
data = [
    ("CN1CCN(c2nc(NCCN3CCOCC3)c3nc(Cl)c(NCCN4CCOCC4)nc3n2)CC1", "half-life", "h", 8.75),
]

====

- target_desc: TLR8 (Homo sapiens, UniProt Q9NR97)
- Construct: PBMCs were isolated from unpurified buffy coat from healthy human donors; host or cells: primary human PBMCs
- Sequence (Q9NR97 27-1041): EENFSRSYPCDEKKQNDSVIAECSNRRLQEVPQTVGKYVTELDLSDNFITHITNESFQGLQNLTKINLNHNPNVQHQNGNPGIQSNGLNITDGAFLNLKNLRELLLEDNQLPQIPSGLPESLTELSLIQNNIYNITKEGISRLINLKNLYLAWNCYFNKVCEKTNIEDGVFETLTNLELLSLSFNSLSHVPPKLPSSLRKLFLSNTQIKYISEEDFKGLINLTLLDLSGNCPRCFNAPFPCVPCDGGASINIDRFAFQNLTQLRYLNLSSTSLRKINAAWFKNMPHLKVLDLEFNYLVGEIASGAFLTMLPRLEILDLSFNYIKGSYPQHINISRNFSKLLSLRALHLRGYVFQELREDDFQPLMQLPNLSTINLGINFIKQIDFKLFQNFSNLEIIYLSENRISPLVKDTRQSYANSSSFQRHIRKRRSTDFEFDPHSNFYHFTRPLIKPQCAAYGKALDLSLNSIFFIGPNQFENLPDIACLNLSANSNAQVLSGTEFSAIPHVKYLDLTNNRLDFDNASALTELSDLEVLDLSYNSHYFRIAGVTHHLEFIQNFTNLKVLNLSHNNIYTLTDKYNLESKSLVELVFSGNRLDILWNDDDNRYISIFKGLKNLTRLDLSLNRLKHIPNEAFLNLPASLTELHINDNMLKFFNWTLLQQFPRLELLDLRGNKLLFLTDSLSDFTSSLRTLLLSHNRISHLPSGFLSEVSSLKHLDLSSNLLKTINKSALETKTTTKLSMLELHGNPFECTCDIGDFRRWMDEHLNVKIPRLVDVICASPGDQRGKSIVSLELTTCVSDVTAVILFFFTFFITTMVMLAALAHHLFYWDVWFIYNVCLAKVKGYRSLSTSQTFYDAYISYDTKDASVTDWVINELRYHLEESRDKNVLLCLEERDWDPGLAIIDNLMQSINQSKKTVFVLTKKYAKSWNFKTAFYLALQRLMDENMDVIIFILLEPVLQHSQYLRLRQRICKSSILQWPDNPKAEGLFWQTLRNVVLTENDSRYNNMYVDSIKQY
- assay_procedure: TLR8 antagonist assay in human PBMCs (ORN1075, TNFα ELISA)
- Format: cell-based
- condition_details: human PBMC, 0.5 μM ORN1075, TNFα readout
# log10 IC50 per entry
measure_name: log10 IC50 (log10 of the value in nM)

# chemical_string, target_desc, measure_name, result_value
records = [
    ("C[C@@H]1CN(CCNc2nc3nc(N4CCN(C)CC4)nc(NCCN4C[C@@H](C)O[C@@H](C)C4)c3nc2Cl)C[C@H](C)O1", "TLR8 (Homo sapiens, UniProt Q9NR97)", "log10 IC50", 2.42),
    ("Clc1nc2c(NCCN3CCOCC3)nc(N3CCOCC3)nc2nc1NCCN1CCOCC1", "TLR8 (Homo sapiens, UniProt Q9NR97)", "log10 IC50", 3.86),
    ("CCCCNc1nc(NCCN2CCOCC2)c2nc(SCC)c(NCCN3CCOCC3)nc2n1", "TLR8 (Homo sapiens, UniProt Q9NR97)", "log10 IC50", 2.13),
    ("Clc1nc2c(NCCN3CCOCC3)nc(NCc3ccccc3)nc2nc1NCCN1CCOCC1", "TLR8 (Homo sapiens, UniProt Q9NR97)", "log10 IC50", 2.39),
    ("CCCCNc1nc(NCCN2CCOCC2)c2nc(Cl)c(NCCN3CCOCC3)nc2n1", "TLR8 (Homo sapiens, UniProt Q9NR97)", "log10 IC50", 2.88),
    ("COCCN1CCN(c2nc(NCCN3CCOCC3)c3nc(Cl)c(NCCN4CCOCC4)nc3n2)CC1", "TLR8 (Homo sapiens, UniProt Q9NR97)", "log10 IC50", 2.34),
]
